# System: PPARg:RXRa IVT, anti-PPARg (NR concentration 270 nM, RXRa partner concentration 90 nM)
# Assay details: PBM binding z-score (relative to random genomic background probes); higher = stronger binding; sequences stand for … in GC…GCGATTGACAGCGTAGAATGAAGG

Primary sequence | PBM binding z-score
ATCGAAAGGTCCTGAGGTGAGTATACAGAAAGGC | 0.777
CGTCCAAGTTCAAGGTAACGTAACAGAAAGCAGC | 0.654
CGTCCAATGTCAGAGAGGTCAGTGAATGCCGAGT | 1.22
ATATGTCGGTTAGCTGGGGTCATTCAGACTAGGC | 2.25
TCTTGTAGATTAGCAGGTTAAGAAAGCTGGCCAA | 0.791
CGAACGAGGGCATGAGTTGAAAGCAAATGCCGAT | 2.09
GCATATAGGTAATACAAGGTGAAAGTGCGATTGT | 3.56
ATAAGTAGGTTAAGGGTCATTCAGGTTGGTTCGC | 7.64
CCAGACAGCTGAGAAGGTAACTCAGCCTCGATTA | -0.629
TTACCAAGGTGAAACGTCGTTGATGCACGCCTTG | 2.95
AGAACGAGGGCACGCTGAGTTGATATCAGAGTAG | 3.89
CCTACTGGGCCATTCAGAGGTCATGGATCATATG | 4.64
CCTAGTTGGTGAAGGTCACACACGCTATAGGTAC | 2.4
ATACCAAGGTGATTGTGAGGTCGTTGATACTAAC | 1.27
CGAACTAGATCAAGGACAGTGAATCTCCGCACGC | 0.649
CCTACTGGGCCACGAAAGGTCATTGAATCAGTGA | 5.52
GCTCGGAGGACAAGGTCAGAGTTTTGTCCGTAGA | 0.996
TCTATTAGTTGATTAGGGCAACAGAAACAGCGGA | 1.59
TGTGCTAGGTCAACGATGGTCAGCTAATCTGCTA | 4.09
TCTGCAAGGTCAGTTGGTCAGCTAACGAGCTGCC | 2.69
ATCTCTAGGTAACCAAGTTCAGCGAATGCCGAAC | 2.95
CCGACTGGGGCAGAAAGGTTACGATACCATCCGG | 2.35
CGTCAAAGTTCAACTAAGATAACGTAAAGCACGC | 2.03
TCATATTGGTAAAAGGTGAAAGTCGGTGTGGTAA | 2.77
CCTTACGGGTCACTCCAGGTTTTAGCATCGGAGT | 3.28
CAAACTAGGTCACAGCGGTCAAAGTCCGTGCGTA | 8.97

---

# Test system: VDR:RXRa (NR concentration 270 nM, RXRa partner concentration 90 nM)
# Assay details: PBM binding z-score (relative to random genomic background probes); higher = stronger binding; sequences stand for … in GC…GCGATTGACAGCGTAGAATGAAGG
Measured PBM binding z-score values are reported for all entries that follow.

Primary sequence | PBM binding z-score
ATACCAAGGTAATCGTGAGGTCGTTGATACTAAC | 3.1
CGTCCAAGGTCAAGGTCAGTGCAAGAGACTCGAA | 5.5
ACAGACCGGTGAGTGAAGGTAACTCAGCTGGACG | -0.63
CCGACTGGAGCAAGGTTACCATAACGCACAGCCA | 0.139
TCGAGTAGGTTAGTCGGAGCATTCAGCCAACATA | -0.307
GCTAGTTGGTCAGTAAAAGGTCTCACACCGGTCG | -0.141
GGAACGAGGGCAAGTTCATAGCAGAGTTTGATGG | 3.9
GGAACGAGGGCAATGTTGATAGCATCTGTCGACG | 0.402
TCTATTAGTTGAAGGACAACCGACGAGTCCGTTT | 1.23
AGAATGAGGTTACCAAGGATCAGGGAAACGCTTG | 2.03
GATACCGGGTCAGCTAGAGGCCAGAGTATGGAAA | 2.26
ATCGAAAGGTCGACGGGGTGAGTATACACCGTTT | 5.62

Source listed as the supplement of paper PMC6555819.
